Tested on: MKL-1
experiment: qHTS assay to identify novel small-molecules to repurpose for Merkel cell carcinoma treatment (AID 1296009); also: nearly all actives have a fitted effect of over 60% in size
reported.conditions: MCC and control cell lines, CellTiter-Glo viability, 72 h; series mostly up to 46 µM
Results filed as inconclusive are left out. Activity calls are given as the source filed them. Calls follow the shape of the dose curve; as a rule, active = well fitted inhibition curve with a large enough effect; inconclusive = small, poorly fitted or top-dose-only effect; inactive = flat fitted curve, though single readings scatter.
Mark one answer only. Choices: active, inactive

# example entries with known answers
molecule	label
CC(=O)[C@H]1CC[C@H]2[C@@H]3CC[C@H]4C[C@H](O)CC[C@]4(C)[C@H]3C(=O)C[C@]12C	inactive
CC[C@@H](CO)NC(=O)[C@@H]1C=C2c3cccc4c3c(cn4C)C[C@H]2N(C)C1	active
FC(F)(F)c1cccc(C2=CCN(CCc3ccc4ccccc4c3)CC2)c1	inactive
Cc1ncc(CNC(=O)N(CCCl)N=O)c(N)n1	inactive
C[C@@H]1[C@@H](C(=O)C[C@H]2O[C@@H]3O[C@]4(C)CC[C@@H]5[C@H](C)CC[C@@H]([C@H]2C)[C@@]35OO4)O[C@@H]2O[C@]3(C)CC[C@H]4[C@H](C)CC[C@@H]1[C@@]24OO3	active

What was the test verdict on c1ccc(C2CC2)c(OCC2=NCCN2)c1 ?
inactive

Please do the same for N[C@@H]1C[C@H]1c1ccccc1 as well.
inactive

Please do the same for C[C@]12CC[C@H]3[C@@H](CCC4=CC(=O)CC[C@@H]43)[C@@H]1CC[C@@H]2OC(=O)CCc1ccccc1 as well.
inactive

Please do the same for CCOC(=O)C1(c2ccccc2)CCN(CCC(C#N)(c2ccccc2)c2ccccc2)CC1 as well.
inactive

Please do the same for C#CCN(C)[C@H](C)Cc1ccccc1 as well.
inactive

Please do the same for NN=C(N)N as well.
inactive

Please do the same for COC[C@@H](NC(C)=O)C(=O)NCc1ccccc1 as well.
inactive

====

experiment: qHTS of pediatric cancer cell lines to identify multiple opportunities for drug repurposing: Primary screen for DAOY cells (AID 1347090);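 also: plate controls were DMSO for no effect and bortezomib for full effect; nearly all actives have a fitted effect of over 55% in size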
reported.conditions: DAOY medulloblastoma viability, CellTiter-Glo luminescence, 48 h; series mostly up to 46 µM
Inconclusive results are not listed. Active and inactive are the calls of the source. Calls follow the shape of the dose curve; as a rule, active = well fitted cell-killing curve with a large enough effect; inconclusive = small, poorly fitted or top-dose-only effect; inactive = flat fitted curve, though single readings scatter.
Mark one answer only. Choices: active, inactive

> print(dat)
                                   compound     label
1  Cc1ccc2c(c1)C1CN(C)CCC1N2 (stereo not drawn)  inactive

What was the test verdict on Nc1ccncc1 ?
inactive

Please do the same for CCCN1CCC[C@@H]2Cc3[nH]ncc3C[C@H]21 as well.
inactive

Please do the same for CCCC1CCCCN1 (stereo not drawn) as well.
inactive

Please do the same for Cc1ncc(CNC(=O)N(CCCl)N=O)c(N)n1 as well.
inactive

Please do the same for C[C@]12CC[C@H]3[C@@H](CCC4=CC(=O)CC[C@@H]43)[C@@H]1CC[C@@H]2OC(=O)CCc1ccccc1 as well.
inactive

====

Tested on: ECU
experiment: qHTS profiling for inhibitors of Plasmodium falciparum proliferation (AID 504749);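 also: 0% = DMSO vehicle and full inhibition = artemisinin control; nearly all actives have a fitted effect of over 60% in size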
reported.conditions: P. falciparum in erythrocytes, SYBR Green DNA, 72 h; series mostly up to 28.7 µM
Inconclusive results are not listed. Active and inactive are the calls of the source. Calls follow the shape of the dose curve; as a rule, active = well fitted inhibition curve with a large enough effect; inconclusive = small, poorly fitted or top-dose-only effect; inactive = flat fitted curve, though single readings scatter.
value.type: outcome

Below, 4 compounds whose answers are already recorded.
> print(dat)
                                   compound    result
1  CC[N+]1(C)CCCC(OC(=O)C(O)(c2ccccc2)c2ccccc2)C1 (stereo not given)  inactive
2                           Oc1cccc2cccnc12  inactive
3      CC1NCCOC1c1ccccc1 (stereo not given)  inactive
4  CC[C@@H](CO)NC(=O)[C@@H]1C=C2c3cccc4[nH]cc(c34)C[C@H]2N(C)C1  inactive

Which outcome reading was recorded for the compound CCN(CC)CCN1C(=O)CN=C(c2ccccc2F)c2cc(Cl)ccc21 ?
inactive

====

experiment: Cell Viability - LYMP2-021 (AID 974);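 also: compound exposure lasts 24 hours at 37 °C; nearly all actives have a fitted effect of over 55% in size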
reported.conditions: LYMP2-021 lymphoblastoid cells viability; series mostly up to 92.2 µM
Results filed as inconclusive are left out. Calls of active or inactive are those of the source. The call rests on the fitted dose curve; in most records, active means well fitted cell-killing curve with a large enough effect; inconclusive means small, poorly fitted or top-dose-only effect; inactive means flat fitted curve, though single readings scatter.
Mark one answer only. Choices: t (active), f (inactive)

# example entries with known answers
> print(dat)
                                   compound  label
1     N[C@@H](Cc1ccc(N(CCCl)CCCl)cc1)C(=O)O      t
2  CC(COc1ccccc1)N(CCCl)Cc1ccccc1 (stereo not given)      t
3  C[C@]12C/C(=C/O)C(=O)C[C@@H]1CC[C@@H]1[C@@H]2CC[C@@]2(C)[C@H]1CC[C@]2(C)O      t
4     CNCC(O)c1ccc(O)cc1 (stereo not given)      f

Read the next record carefully.
What was the test verdict on OCCOc1ccccc1 ?
f

====

Tested on: WaGa
experiment: qHTS assay to identify novel small-molecules to repurpose for Merkel cell carcinoma treatment (AID 1296009); also: nearly all actives have a fitted effect of over 60% in size
reported.conditions: MCC and control cell lines, CellTiter-Glo viability, 72 h; series mostly up to 46 µM
Results filed as inconclusive are left out. Active and inactive are the calls of the source. Calls come from the whole dose curve; as a rule, active = well fitted inhibition curve with a large enough effect; inconclusive = small, poorly fitted or top-dose-only effect; inactive = flat fitted curve, though single readings scatter.
Mark one answer only. Choices: active, inactive

> print(dat)
                                    compound  subject.of.test     label
 1        CCCN1CCC[C@@H]2Cc3[nH]ncc3C[C@H]21             WaGa  inactive
 2                    c1ccc2c(c1)Nc1ccccc1S2             WaGa  inactive
 3  O=C(NC(O)C(Cl)(Cl)Cl)NC(O)C(Cl)(Cl)Cl (stereo unspecified)             WaGa  inactive
 4                NP(N)(=O)NC(=O)c1ccc(F)cc1             WaGa  inactive
 5  N[C@@H](Cc1ccc(Oc2cc(I)c(O)c(I)c2)c(I)c1)C(=O)O             WaGa  inactive
 6  O=C(O)c1ccc2[nH]cc(CCCCN3CC=C(c4ccccc4)CC3)c2c1             WaGa  inactive
 7  O=C1NCN(c2ccccc2)C12CCN(CC1COc3ccccc3O1)CC2 (stereo unspecified)             WaGa  inactive
 8  CCN(C(C)=O)c1cccc(-c2ccnc3c(C#N)cnn23)c1             WaGa  inactive
 9  CNC(=O)N1N=C(c2ccc(N)cc2)c2cc3c(cc2CC1C)OCO3 (stereo unspecified)             WaGa    active
10       CN1C(=S)CN=C(c2ccccc2)c2cc(Cl)ccc21             WaGa  inactive

Read the next record carefully.
What was the test verdict on Cc1ccc2c(c1)C1CN(C)CCC1N2 (stereo unspecified) ?
inactive

====

experiment: qHTS of pediatric cancer cell lines to identify multiple opportunities for drug repurposing: Primary screen for RD cells (AID 1347104);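 also: plate controls were DMSO for no effect and bortezomib for full effect; nearly all actives have a fitted effect of over 55% in size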
reported.conditions: RD rhabdomyosarcoma viability, CellTiter-Glo luminescence, 48 h; series mostly up to 46 µM
Inconclusive results are not listed. The source made the active and inactive calls. Calls follow the shape of the dose curve; as a rule, active = well fitted cell-killing curve with a large enough effect; inconclusive = small, poorly fitted or top-dose-only effect; inactive = flat fitted curve, though single readings scatter.
Mark one answer only. Choices: 1.0 (active), 0.0 (inactive)

# example entries with known answers
> print(dat)
                                 compound  label
1                        CC[N+](CC)(CC)CC    0.0
2                 N[C@@H]1C[C@H]1c1ccccc1    0.0
3  Cn1c(CCCC(=O)O)nc2cc(N(CCCl)CCCl)ccc21    0.0

What was the test verdict on COc1ccc(C(=O)c2c(C)n(CCN3CCOCC3)c3ccccc23)cc1 ?
0.0

Please do the same for NN=C(N)N as well.
0.0

Please do the same for CCN(CC)CCOC(=O)C(O)(c1ccccc1)c1ccccc1 as well.
0.0

Please do the same for NCC(O)c1ccc(O)cc1 (stereo not drawn) as well.
0.0

Please do the same for Cn1cc(C2=C(c3cn(C4CCN(Cc5ccccn5)CC4)c4ccccc34)C(=O)NC2=O)c2ccccc21 as well.
0.0

Please do the same for O=c1[nH]c2ccccc2n1CCCN1CCC(n2c(=O)[nH]c3cc(Cl)ccc32)CC1 as well.
0.0

====

Test system: HEK293
experiment: Cytotoxic Profiling of Annotated Libraries Using Quantitative High-Throughput Screening (AID 1296008); also: nearly all actives have a fitted effect of over 60% in size; also: potency is read from the fitted curve at half-maximal effect
reported.conditions: Five cell lines viability, CellTiter-Glo ATP luminescence, 48-72 h
Inconclusive results are not listed. Activity calls are given as the source filed them. Calls follow the shape of the dose curve; as a rule, active = well fitted inhibition curve with a large enough effect; inconclusive = small, poorly fitted or top-dose-only effect; inactive = flat fitted curve, though single readings scatter.
value.type: Potency

Below, 5 compounds whose answers are already recorded.
> print(dat)
                            chemical.string  subject.of.test  value.type            result
1  Cc1cc(SCc2sc(-c3ccc(C(F)(F)F)c(F)c3)nc2C)ccc1OCC(=O)O           HEK293     Potency          inactive
2  N[C@@H](Cc1ccc(Oc2cc(I)c(O)c(I)c2)c(I)c1)C(=O)O           HEK293     Potency          inactive
3  CO[C@]12CC[C@@]3(C[C@@H]1[C@](C)(O)C(C)(C)C)[C@@H]1Cc4ccc(O)c5c4[C@@]3(CCN1CC1CC1)[C@H]2O5           HEK293     Potency  21.5 µM (active)
4  O=C(O)C(=O)c1cn(Cc2ccccc2)c2ccc(-c3ccc(OC(F)(F)F)cc3)cc12           HEK293     Potency          inactive
5     N[C@@H](Cc1ccc(N(CCCl)CCCl)cc1)C(=O)O           HEK293     Potency  20.9 µM (active)

Which Potency reading was recorded for the compound Cn1c(CCCC(=O)O)nc2cc(N(CCCl)CCCl)ccc21 ?
inactive
